# SYSTEM_NAME: Fes (UniProt P07332)
# Sequence (P07332 whole entry, looked up): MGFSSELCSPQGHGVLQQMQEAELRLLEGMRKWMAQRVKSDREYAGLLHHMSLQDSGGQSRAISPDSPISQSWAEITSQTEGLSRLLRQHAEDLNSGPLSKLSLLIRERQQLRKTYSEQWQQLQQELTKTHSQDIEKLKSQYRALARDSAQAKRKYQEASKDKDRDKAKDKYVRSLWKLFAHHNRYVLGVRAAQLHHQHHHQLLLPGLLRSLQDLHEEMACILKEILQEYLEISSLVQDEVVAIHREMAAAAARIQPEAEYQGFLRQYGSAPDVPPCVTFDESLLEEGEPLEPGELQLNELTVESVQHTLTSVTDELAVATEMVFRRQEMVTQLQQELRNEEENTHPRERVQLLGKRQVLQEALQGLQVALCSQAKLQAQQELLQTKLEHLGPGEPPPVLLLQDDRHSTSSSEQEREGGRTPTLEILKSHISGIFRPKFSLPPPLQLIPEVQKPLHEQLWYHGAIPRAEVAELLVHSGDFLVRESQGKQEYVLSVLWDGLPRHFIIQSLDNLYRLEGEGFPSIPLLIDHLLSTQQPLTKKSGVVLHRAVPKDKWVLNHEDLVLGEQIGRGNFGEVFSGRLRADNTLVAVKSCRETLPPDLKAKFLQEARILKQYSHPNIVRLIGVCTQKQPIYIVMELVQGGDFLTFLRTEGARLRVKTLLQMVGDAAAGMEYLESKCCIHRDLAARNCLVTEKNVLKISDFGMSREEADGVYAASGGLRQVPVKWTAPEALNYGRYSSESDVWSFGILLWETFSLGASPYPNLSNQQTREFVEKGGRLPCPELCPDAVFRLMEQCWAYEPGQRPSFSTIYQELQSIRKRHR
# EXPERIMENTAL_PROTOCOL: phosphorylation enrichment, bacterial display (enrichment ratio); higher = better substrate or ligand; peptides without Tyr show the background;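 also: 11-residue human phosphosite peptides and single-mutation variants displayed on the E. coli surface, counted by deep sequencing, each peptide's frequency after selection divided by its frequency in the unselected input library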;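 also: frequency after pTyr selection over input frequency; kinase dosed for 20-30% of maximal phosphorylation in three min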
ASSAY_METRIC: phosphorylation enrichment

Completed entries (count: 4):
SEQ_STRING	ASSAY_METRIC	OBSERVED
KPGLKYVTFGN [GALNTL5_Y404_YF]	phosphorylation enrichment	0.768
RKELFYKADGE [SERPINC1_Y272]	phosphorylation enrichment	1.08
DKNSSYFADWL [TUBB8_Y340]	phosphorylation enrichment	1.09
EFQKKYSDADI [CKAP5_Y1860_K1857Q_YF]	phosphorylation enrichment	0.921

For this sequence ( SEKIVYGHLDD [ACO2_Y71] ), measured phosphorylation enrichment is 1

Source of measurements: the supplement of paper PMC10065799
